- tgt: ChEH (Mus musculus, UniProt O88455+P70245)
- Sequence (P70245 1-230): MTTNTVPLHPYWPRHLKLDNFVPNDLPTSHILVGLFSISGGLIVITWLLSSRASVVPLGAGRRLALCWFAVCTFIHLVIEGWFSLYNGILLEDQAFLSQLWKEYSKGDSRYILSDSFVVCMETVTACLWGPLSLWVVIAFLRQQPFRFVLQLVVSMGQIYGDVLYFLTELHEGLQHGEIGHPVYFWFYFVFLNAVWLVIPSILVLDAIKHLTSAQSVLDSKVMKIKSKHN
- Sequence (O88455 1-471): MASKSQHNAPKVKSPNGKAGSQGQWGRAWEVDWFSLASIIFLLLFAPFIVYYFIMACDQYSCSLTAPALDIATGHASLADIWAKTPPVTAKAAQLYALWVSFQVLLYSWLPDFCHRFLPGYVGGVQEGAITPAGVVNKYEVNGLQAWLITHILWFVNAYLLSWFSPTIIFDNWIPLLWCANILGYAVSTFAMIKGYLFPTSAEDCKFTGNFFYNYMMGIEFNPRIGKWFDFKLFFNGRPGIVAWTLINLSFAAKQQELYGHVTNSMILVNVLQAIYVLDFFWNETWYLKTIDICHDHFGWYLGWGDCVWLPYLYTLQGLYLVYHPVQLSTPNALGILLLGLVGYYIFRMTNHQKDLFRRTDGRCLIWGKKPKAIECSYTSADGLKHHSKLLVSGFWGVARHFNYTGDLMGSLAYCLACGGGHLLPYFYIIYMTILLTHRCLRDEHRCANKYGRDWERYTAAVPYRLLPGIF
- experimentalProtocol: ChEH activity in murine mammary TSA cells
- Format: cell-based
pIC50: −log10 of the molar value.

{"columns": ["compound", "tgt", "pIC50"],
 "data": [
  ["CC(C)CCC[C@@H](C)[C@H]1CC[C@H]2[C@@H]3C[C@@H](NCCc4c[nH]cn4)[C@@]4(O)C[C@@H](O)CC[C@]4(C)[C@H]3CC[C@]12C [DDA]", "ChEH (Mus musculus, UniProt O88455+P70245)", 6.55]
]}

====

- tgt: ChEH (Homo sapiens, UniProt Q15125+Q9UBM7)
- Sequence (Q15125 whole entry): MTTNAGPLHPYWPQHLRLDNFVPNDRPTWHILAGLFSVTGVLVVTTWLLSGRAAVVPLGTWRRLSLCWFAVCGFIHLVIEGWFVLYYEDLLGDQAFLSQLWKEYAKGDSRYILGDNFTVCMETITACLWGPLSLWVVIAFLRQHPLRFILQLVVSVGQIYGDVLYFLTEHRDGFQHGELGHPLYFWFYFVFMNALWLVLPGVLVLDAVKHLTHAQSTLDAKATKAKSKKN
- Sequence (Q9UBM7 whole entry): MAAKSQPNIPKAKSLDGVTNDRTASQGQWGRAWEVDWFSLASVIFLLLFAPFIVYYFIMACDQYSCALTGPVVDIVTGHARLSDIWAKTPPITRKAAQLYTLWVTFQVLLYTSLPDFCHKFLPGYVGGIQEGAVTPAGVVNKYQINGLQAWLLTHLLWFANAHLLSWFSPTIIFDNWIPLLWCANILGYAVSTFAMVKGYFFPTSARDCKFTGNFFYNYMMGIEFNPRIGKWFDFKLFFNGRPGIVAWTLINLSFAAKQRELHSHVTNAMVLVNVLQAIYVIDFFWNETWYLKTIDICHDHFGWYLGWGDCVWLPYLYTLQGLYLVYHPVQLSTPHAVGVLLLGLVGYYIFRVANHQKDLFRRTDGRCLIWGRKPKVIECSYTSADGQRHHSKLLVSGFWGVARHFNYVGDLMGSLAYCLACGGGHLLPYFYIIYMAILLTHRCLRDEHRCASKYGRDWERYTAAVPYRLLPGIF
- experimentalProtocol: ChEH activity in human melanoma SK-Mel-28 cells
- Assay type: cell-based
pIC50: −log10 of the molar value.

{"columns": ["compound", "pIC50"],
 "data": [
  ["CC(C)CCC[C@@H](C)[C@H]1CC[C@H]2[C@@H]3C[C@@H](NCCc4c[nH]cn4)[C@@]4(O)C[C@@H](O)CC[C@]4(C)[C@H]3CC[C@]12C [DDA]", 7.14]
]}

Where do the numbers come from? From paper PMC3674249.
